Test: In vivo pharmacokinetics (rat), peroral cassette dosing
Set-up: species or system Wistar rats
Settings: male, Wistar, plasma, po, 10 mg/kg, extrapolated to ∞
EXPERIMENTAL_ENDPOINT: AUC(0-inf) (ng·h/mL)

Oc1ccc(-c2ccc(-c3cccc(O)c3)s2)cc1 [Compound 29, 3-[5-(4-Hydroxyphenyl)-2-thienyl]phenol] = 99.2
Oc1cccc(-c2nnc(-c3cccc(O)c3)nn2)c1 [Compound 59] = 1200

1 = Oc1cccc(-c2ccc(-c3ccc(O)c(F)c3)s2)c1 [Compound 47]
2 = Cc1cc(-c2ccc(-c3cccc(O)c3)s2)ccc1O [Compound 45]
Pick one: 1 or 2 . Which one has the lower reported AUC(0-inf)? Answer by quoting the chosen item's label.
2
(2: 12300 ng·h/mL, 1: 19400 ng·h/mL)
